# Tested on: BT-549 breast
# experiment-notes: NCI-60 one-dose screen, 48 h (100 = growth as untreated, 0 = no growth, -100 = all killed)
# condition-summary: 10 µM unless noted
Compounds without any hit were thinned out: in the full panel of roughly 83,000, 20% have a hit. Activity calls are given as the source filed them. Rule for the calls: active = growth percent below 10; inactive = the rest.
metric-name: growth

Short answer for CC(C)(C)c1ccc(C(=O)Nc2sc3c(c2C(N)=O)CCC(=O)C3)cc1 : growth was -10.3% (active)

Short answer for [2H]c1nc(Nc2ncc(F)c(-c3cc(F)c4nc(C)n(C(C)C)c4c3)n2)c([2H])c([2H])c1CN1CCN(C([2H])([2H])C([2H])([2H])[2H])CC1 : growth was 51.3% (inactive)

Short answer for Clc1ccc2c(NCCCN3CCN(c4nc(N5CCOCC5)nc5ccccc45)CC3)ccnc2c1 : growth was 59.3% (inactive)

Short answer for O=C(Oc1ccc([N+](=O)[O-])cc1)c1ccc(CBr)cc1 : growth was 105% (inactive)

Short answer for Clc1ccc(-c2nc(NCCc3ccccc3)nc3c(NCCc4ccccc4)cnn23)cc1 : growth was 63.6% (inactive)

Short answer for COc1ccc(OC)c(C(=O)Nc2cccc(-c3cc(=O)c4ccccc4o3)c2)c1 : growth was 88.2% (inactive)

Short answer for COc1cc(NC(=O)c2cccc(-c3cc(=O)c4c(OC)c(OC)c(OC)cc4o3)c2)cc(OC)c1OC : growth was 27% (inactive)

Short answer for Cc1cc(N2CCCCC2)nc(N(CCNc2ccnc3cc(Cl)ccc23)Cc2ccccn2)n1 : growth was 64.3% (inactive)

Short answer for O=C(CCl)N1c2cccc3cccc(c23)N(C(=O)CCl)C1c1cn(-c2ccccc2)nc1-c1cccc([N+](=O)[O-])c1 : growth was 98.5% (inactive)

Short answer for CCOC(=O)c1c(C)nc2c(c1N)/C(=C/c1cc(OC)c(OC)c(OC)c1)C(=O)N2c1ccc(OC)cc1 : growth was 46.7% (inactive)

Short answer for CCN1CCN(c2ccc(Nc3cc(-c4cccnc4Nc4c(Cl)c(OC)cc(OC)c4Cl)ncn3)cc2)CC1 : growth was 60.1% (inactive)

Short answer for O=C1/C(=C/c2ccccc2[N+](=O)[O-])COc2ccc(O)c(O)c21 : growth was 21.3% (inactive)

Short answer for CN(CCCCCCCCNc1ccnc2ccccc12)Cc1ccc(-c2ccc(-c3ccc(C#N)cc3)s2)cc1 : growth was -30.1% (active)

Short answer for CCNCCNc1cc(-c2cccc(C(F)(F)F)c2)c(C#N)c2nc3ccccc3n12 : growth was -64.6% (active)

Short answer for NS(=O)(=O)Oc1ccc(NC(=O)C23CC4CC(CC(C4)C2)C3)cc1Cl : growth was 99.3% (inactive)

Short answer for Nc1c(-c2nc3ccc(Br)cc3c(=O)[nH]2)nnn1-c1ccccc1 : growth was 63.1% (inactive)

Short answer for CCOC(=O)Cc1csc2nc(-c3ccccc3)nn12 : growth was 127% (inactive)

Short answer for O=c1ccn(C2OC(F)(CO)C(O)C2F)c(=O)[nH]1 (configuration not stated) : growth was 101% (inactive)

Short answer for CC(C)n1nc(C#Cc2cccc3cc(-c4cccc(C(F)(F)F)c4)ncc23)c2c(N)ncnc21 : growth was 97.7% (inactive)

Short answer for COc1ccc(-n2sc(=O)n(Cc3ccc(COC(=O)C(C)c4ccc(CC(C)C)cc4)cc3)c2=O)cc1 (configuration not stated) : growth was 52.8% (inactive)

Short answer for COc1cc2c(cc1OC)-c1ccc3cc4c(cc3c1N(CCCN(C)C)C2)OCO4 : growth was 41.2% (inactive)

Short answer for C=C1C(=O)O[C@H]2[C@H]1CC/C(COC(=O)/C=C\C(=O)NCc1ccc(Cn3c(=O)sn(CCCC)c3=O)cc1)=C\CC[C@@]1(C)O[C@@H]21 : growth was -73.3% (active)

Short answer for COc1ccc2c(c1)/C(=C\c1sc(=S)[nH]c1O)C(C(=O)O)=N2 : growth was 109% (inactive)

Short answer for C=CCN1C(=O)[C@]2(SC1=S)[C@H](c1cccc(Cl)c1)CN(C)[C@]21C(=O)NC2C=CC(Cl)=C[C@H]21 (some centres not stated) : growth was 34.1% (inactive)

Short answer for CCOC(=O)c1c(C)[nH]c(C(=O)CCC(=O)OC)c1C : growth was 84.5% (inactive)

Short answer for Cc1nc(Nc2ccc(S(=O)(=O)Nc3cc(C)on3)cc2)c2ccccc2n1 : growth was 120% (inactive)

Short answer for CCCCCCNc1cc(C)nc2ccc(OC)cc12 : growth was 75.5% (inactive)

Short answer for COc1cc2c(c(OC)c1OC)C(=O)/C(=C/c1cc(C)c(O)c(C)c1)S2 : growth was 56.9% (inactive)

Short answer for COc1ccc(C(=O)/C=C/C23c4ccccc4C(c4ccccc42)C2C(=O)NC(=O)C23)cc1 (configuration not stated) : growth was 97.1% (inactive)

Short answer for Nc1nc(N)c(-c2ccc(Cl)cc2)c(/C=C/c2ccc([N+](=O)[O-])cc2)n1 : growth was 92.3% (inactive)

Short answer for O=C1/C(=C/c2ccc([N+](=O)[O-])cc2)COc2ccc(O)c(O)c21 : growth was 24.3% (inactive)

Short answer for O=[N+]([O-])c1ccccc1C(O)Cc1ccc2ccccc2n1 (configuration not stated) : growth was 109% (inactive)

Short answer for Cn1ccc(Cc2cnc(N)s2)n1 : growth was 102% (inactive)

Short answer for Cc1cc(Cl)nc(N(CCCNc2ccnc3cc(Cl)ccc23)Cc2ccccn2)n1 : growth was 54% (inactive)

Short answer for C=C1C(=O)O[C@H]2[C@H]1CC/C(COC(=O)/C=C\C(=O)NCc1ccc(Cn3c(=O)sn(-c4ccc(Cl)cc4)c3=O)cc1)=C\CC[C@@]1(C)O[C@@H]21 : growth was -40.9% (active)

Short answer for C=C(C)[C@@H]1CC[C@@]2(C(=O)O)CC[C@]3(C)C(CCC4[C@@]5(C)CCC(OS(=O)(=O)c6ccccc6)C(C)(C)C5CC[C@]43C)C12 (some centres not stated) : growth was 58.9% (inactive)

Short answer for COc1ccc(-c2cc(-c3ccc(Nc4nc(Nc5ccccc5)nc(Nc5ccc(Cl)cc5)n4)cc3)nc(N)n2)cc1 : growth was 82.1% (inactive)

src = PubChem BioAssay (NCI)
